- assay.text: qHTS of pediatric cancer cell lines to identify multiple opportunities for drug repurposing: Confirmatory screen for Rh41 cells (AID 1347123);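 note: 48 h compound exposure; nearly all actives have a fitted effect of over 60% in size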
- test.parameters: Rh41 rhabdomyosarcoma cells, viability/cytotoxicity qHTS; series mostly up to 45.9 µM
Inconclusive results are not listed. Activity calls are given as the source filed them. Calls come from the whole dose curve; as a rule, active = well fitted cell-killing curve with a large enough effect; inconclusive = small, poorly fitted or top-dose-only effect; inactive = no such curve, though single readings can be large or run the other way.
Choose the fitting class; nothing outside yes (1) for active, no (0) for inactive is accepted.

Solved entries:
compound=COCCn1c2c([n+](Cc3cnccn3)c1C)C(=O)c1ccccc1C2=O answer_label="yes (1)"
compound=Nc1ccccc1NC(=O)c1ccc(CNC(=O)OCc2cccnc2)cc1 answer_label="yes (1)"

Incoming: Entry COc1cc2c(Oc3ccc(NC(=O)C4(C(=O)Nc5ccc(F)cc5)CC4)cc3F)ccnc2cc1OCCCN1CCOCC1 : call = ?
Outgoing: yes (1)

Incoming: Lookup CN(C)Cc1c(C(=O)NCCOc2ccc(C(=O)NO)cc2)oc2ccccc12
Outgoing: yes (1)

Incoming: Lookup OCCCNc1cc(-c2ccnc(Nc3cccc(Cl)c3)n2)ccn1
Outgoing: yes (1)

Incoming: Lookup CCC1=C[C@@H]2CN(C1)Cc1c([nH]c3ccccc13)[C@@](C(=O)OC)(c1cc3c(cc1OC)N(C)[C@@H]1[C@@](O)(C(=O)OC)[C@H](OC(C)=O)[C@]4(CC)C=CCN5CC[C@]31[C@@H]54)C2
Outgoing: yes (1)

Incoming: Lookup CN(C)CCCN=c1c2ccccc2n(C)c2[nH]c(=O)n(C)c(=O)c12
Outgoing: yes (1)

Incoming: Lookup CC[C@@H]1C(=O)N(C)c2cnc(Nc3ccc(C(=O)NC4CCC(N5CCN(CC6CC6)CC5)CC4)cc3OC)nc2N1C(C)C (stereo partly specified)
Outgoing: no (0)

Incoming: Lookup Cc1cn(-c2cc(NC(=O)c3ccc(C)c(Nc4nccc(-c5cccnc5)n4)c3)cc(C(F)(F)F)c2)cn1
Outgoing: yes (1)

Incoming: Lookup CC1(C)O[C@@H]2C[C@@H]3[C@H]4C[C@@H](F)C5=CC(=O)C=C[C@]5(C)[C@@]4(F)[C@@H](O)C[C@]3(C)[C@]2(C(=O)CO)O1
Outgoing: yes (1)

Incoming: Lookup CNC(=O)c1c(F)cccc1Nc1nc(Nc2cc3c(cc2OC)CCN3C(=O)CN(C)C)nc2[nH]ccc12
Outgoing: yes (1)

Ref: PubChem BioAssay (NCATS)
